- Target: Leukotriene B4 receptor 1 (Homo sapiens, UniProt Q15722)
- Sequence (Q15722 whole entry): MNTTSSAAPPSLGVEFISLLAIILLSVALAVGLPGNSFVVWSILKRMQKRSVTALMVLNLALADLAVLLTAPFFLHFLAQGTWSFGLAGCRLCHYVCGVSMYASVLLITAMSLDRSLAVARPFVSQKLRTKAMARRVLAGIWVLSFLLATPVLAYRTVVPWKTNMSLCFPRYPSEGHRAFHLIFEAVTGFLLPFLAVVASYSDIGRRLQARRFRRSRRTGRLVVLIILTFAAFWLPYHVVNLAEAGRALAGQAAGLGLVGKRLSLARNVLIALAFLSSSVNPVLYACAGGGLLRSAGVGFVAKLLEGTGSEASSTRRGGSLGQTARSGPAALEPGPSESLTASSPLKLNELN
- Assay text: Inhibition of [3H]LTB4 binding to Leukotriene B4 receptor of human polymorphonuclear leukocytes
Quantity kind: pIC50
Answers are plain numbers, as −log10 of the molar value.

(Q) Recorded pIC50 for CC(CCCCOc1cc(-c2ccccc2)cc(-c2ccccc2Cl)n1)C(=O)O (stereo unspecified) , please?
(A) 8.22

###

I'd be grateful if you could share measured IC50 for these entries.
- Target: Leukotriene B4 receptor 1 (Homo sapiens)
- Assay text: Inhibition of [3H]-LTB4 binding to Leukotriene B4 receptor in the human polymorphonuclear leukocytes.
One number for each entry, in nM.

For every listed record, write down its IC50.
1. O=C(O)CCCCCCOc1cc(-c2ccccc2)cc(-c2ccccc2)n1
2. O=C(O)CCCCCOc1cc(-c2ccc([N+](=O)[O-])cc2)cc(-c2ccccc2)n1
3. O=C(O)CCCCCOc1cc(-c2ccccc2)cc(-c2ccccc2)n1

(A)
[15, 600, 30]

For every listed record, write down its IC50.
1. O=C(O)CCCCCOc1cc(-c2ccccc2)cc(-c2ccc(F)cc2)n1
2. CC(C)(CCCCCCOc1cc(-c2ccccc2)cc(-c2ccccc2)n1)C(=O)O
3. CC(CCCCOc1cc(-c2ccccc2)cc(-c2ccccc2)n1)C(=O)O (stereo not given)

(A)
[30, 60, 30]

For every listed record, write down its IC50.
1. O=C(O)CCCCCOc1cc(-c2ccc3c(c2)OCO3)cc(-c2ccccc2)n1
2. CC(C)(CCCCOc1cc(-c2ccc(N)cc2)cc(-c2ccccc2)n1)C(=O)O
3. CC(CCCCOc1cc(-c2ccc3c(c2)OCO3)cc(-c2ccccc2)n1)C(=O)O (stereo not given)
4. CC(C)(CCCCOc1cc(-c2ccccc2)cc(-c2ccccc2)n1)c1nnn[nH]1
5. O=C(O)CCCCOc1cc(-c2ccccc2)cc(-c2ccccc2)n1
6. COC(=O)CCCCCOc1cc(-c2ccccc2)cc(-c2ccccc2)n1

(A)
6
9.5
6.6
20
300
100

For every listed record, write down its IC50.
1. CC(CCCCOc1cc(-c2ccccc2)cc(-c2ccccc2F)n1)C(=O)O (stereo not given)
2. CC(CCCCOc1cc(-c2ccc3c(c2)OCO3)cc(-c2ccccc2Cl)n1)C(=O)O (stereo not given)

(A)
1. 18
2. 12

(Q) Recorded IC50 for NC(=O)CCCCCOc1cc(-c2ccccc2)cc(-c2ccccc2)n1 , please?
(A) 150
